target: F508del in NIH 3T3 cells (Homo sapiens, UniProt P13569, DEL508-508); construct: expressed in transfected cells; assay: 3T3 assay: membrane potential optical assay for F508del correction; format: cell-based; conditions: NIH 3T3 cells, F508del; read-out: 3T3 EC50
Sequence (P13569 with tags, fused parts or gaps DEL508-508): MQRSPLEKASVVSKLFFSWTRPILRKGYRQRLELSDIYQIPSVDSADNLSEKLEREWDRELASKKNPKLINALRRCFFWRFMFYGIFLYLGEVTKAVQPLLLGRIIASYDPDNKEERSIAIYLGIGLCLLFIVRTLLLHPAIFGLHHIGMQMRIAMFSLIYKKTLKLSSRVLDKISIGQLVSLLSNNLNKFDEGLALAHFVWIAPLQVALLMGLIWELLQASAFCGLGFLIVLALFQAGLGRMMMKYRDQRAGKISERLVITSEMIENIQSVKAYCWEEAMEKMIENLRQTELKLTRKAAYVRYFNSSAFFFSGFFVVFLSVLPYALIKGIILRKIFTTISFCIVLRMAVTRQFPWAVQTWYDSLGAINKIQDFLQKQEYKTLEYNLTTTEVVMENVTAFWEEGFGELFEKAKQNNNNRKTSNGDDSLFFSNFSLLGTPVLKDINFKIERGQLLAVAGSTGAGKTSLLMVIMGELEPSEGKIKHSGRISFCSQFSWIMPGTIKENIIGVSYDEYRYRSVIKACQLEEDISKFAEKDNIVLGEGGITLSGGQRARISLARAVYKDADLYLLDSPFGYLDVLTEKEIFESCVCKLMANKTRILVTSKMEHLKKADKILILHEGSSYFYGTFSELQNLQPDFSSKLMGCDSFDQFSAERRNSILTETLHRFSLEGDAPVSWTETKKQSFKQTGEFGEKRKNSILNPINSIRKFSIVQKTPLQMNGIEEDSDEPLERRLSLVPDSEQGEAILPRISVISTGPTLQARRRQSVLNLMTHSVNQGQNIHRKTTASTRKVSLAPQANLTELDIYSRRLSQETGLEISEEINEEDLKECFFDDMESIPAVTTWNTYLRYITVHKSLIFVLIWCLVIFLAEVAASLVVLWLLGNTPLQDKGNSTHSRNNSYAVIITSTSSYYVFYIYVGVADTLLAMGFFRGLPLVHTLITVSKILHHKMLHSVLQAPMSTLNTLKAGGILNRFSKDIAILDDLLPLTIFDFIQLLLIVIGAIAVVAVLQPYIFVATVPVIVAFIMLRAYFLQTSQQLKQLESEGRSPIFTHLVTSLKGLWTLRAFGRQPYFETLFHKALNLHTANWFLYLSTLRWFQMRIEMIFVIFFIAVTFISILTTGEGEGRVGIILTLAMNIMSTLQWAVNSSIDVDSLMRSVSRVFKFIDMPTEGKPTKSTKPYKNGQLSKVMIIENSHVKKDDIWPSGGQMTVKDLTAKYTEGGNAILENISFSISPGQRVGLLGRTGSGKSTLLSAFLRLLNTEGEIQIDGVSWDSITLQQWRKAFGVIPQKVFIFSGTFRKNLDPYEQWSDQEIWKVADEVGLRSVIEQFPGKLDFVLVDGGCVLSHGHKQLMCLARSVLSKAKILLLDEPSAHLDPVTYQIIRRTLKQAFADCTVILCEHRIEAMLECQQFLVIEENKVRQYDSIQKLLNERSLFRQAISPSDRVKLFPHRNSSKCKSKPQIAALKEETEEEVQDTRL
pEC50: −log10 of the molar value.
endpoint label: pEC50

> print(dat)
                                      smiles  observed.measurement
 1  Cc1ccc(-c2ccc(NS(=O)(=O)c3ccccc3)nc2-c2ccc(C)cc2)cc1          5.52 to 6.00
 2  Cc1nc(NS(=O)(=O)c2ccccc2)sc1-c1csc(Nc2ccccn2)n1          5.52 to 6.00
 3  Cc1cc(NS(=O)(=O)c2ccccc2)nc(-c2cc(C)ccc2C)c1          5.52 to 6.00
 4  Cc1ccc(-c2nc(NS(=O)(=O)c3ccccc3)ccc2C)cc1C          4.52 to 5.52
 5  Cc1ccc(-c2nc(NS(=O)(=O)c3ccccc3)ccc2C)c(C)c1          5.52 to 6.00
 6  CC(C)=Cc1cc(NS(=O)(=O)c2ccccc2)nn1-c1c(C)cc(C)cc1C          5.52 to 6.00
 7  Cc1cc(C)c(-n2nc(NS(=O)(=O)c3ccccc3)cc2-c2ccccc2C)c(C)c1                > 6.00
 8  O=C(NCc1ccccc1)c1sc(NS(=O)(=O)c2ccccc2)nc1-c1ccccc1          4.52 to 5.52
 9  COc1ccccc1Nc1nc(-c2sc(NS(=O)(=O)c3ccccc3)nc2C)cs1          4.52 to 5.52
10  Cc1cc(C)c(-n2nc(NS(=O)(=O)c3ccccc3)cc2C2=CCCCC2)c(C)c1          5.52 to 6.00
11  Cc1ccc(C)c(-c2nc(NS(=O)(=O)c3ccccc3)ccc2C)c1          5.52 to 6.00
12  O=S(=O)(Nc1cc(-c2ccccc2)nc(Oc2ccccc2)n1)c1ccccc1          5.52 to 6.00
13   CCCc1oc(NS(=O)(=O)c2ccccc2)nc1-c1ccccc1          4.52 to 5.52
14  CCCc1sc(NS(=O)(=O)c2ccccc2)nc1-c1ccc(OC)cc1          5.52 to 6.00
15  COc1cccc(-c2cn(-c3cccc(Cl)c3)nc2NS(=O)(=O)c2ccccc2)c1          5.52 to 6.00
16  Cc1ccc(C)c(-c2nc(NS(=O)(=O)c3ccccc3)cc(C)c2C)c1          5.52 to 6.00
17  Cc1ccc(-c2cn(Cc3ccccc3)nc2NS(=O)(=O)c2ccccc2)cc1          5.52 to 6.00
18  Cc1cc(NS(=O)(=O)c2ccccc2)nc(-c2cccc(C)c2C)c1          4.52 to 5.52

====

Reported Emax is given for each of the following compounds.
molecular target: F508del in NIH 3T3 cells (Homo sapiens, UniProt P13569, DEL508-508); construct: expressed in transfected cells; assay: 3T3 assay: membrane potential optical assay for F508del correction; assay type: cell-based; conditions: NIH3T3; NIH 3T3 cells, F508del; read-out: 3T3 Max Activity (%)
endpoint label: Emax

> print(dat)
                                   compound  endpoint.label  observed.measurement
1  Cc1nc(NS(=O)(=O)c2ccccc2)sc1-c1csc(Nc2ncccn2)n1 [Compound 44]            Emax                 < 30%
2  CC(C)(C)c1nc(NS(=O)(=O)c2ccccc2)sc1C#N [Compound 45]            Emax                 < 30%
3  Cc1ccc(-c2cn(-c3cccc(Cl)c3)nc2NS(=O)(=O)c2ccccc2)cc1 [Compound 93]            Emax                 < 30%
4  COc1cccc(-c2cn(Cc3ccccc3)nc2NS(=O)(=O)c2ccccc2)c1 [Compound 112]            Emax                 < 30%
5  C=C(C)c1cn(-c2c(C)cc(C)cc2C)nc1NS(=O)(=O)c1ccccc1 [Compound 97]            Emax                 < 30%
6  Nc1cccc(S(=O)(=O)Nc2nc(Oc3ccccc3)nc(-c3ccccc3)n2)c1 [Compound 126]            Emax             30 to 60%
7  Cc1cc(C)c(-n2nc(NS(=O)(=O)c3ccccc3)cc2Br)c(C)c1 [Compound 67]            Emax                 > 60%
8  Nc1cccc(S(=O)(=O)Nc2nc(-c3ccccc3)c(Cc3cccc(C(=O)O)c3)s2)c1 [Compound 28]            Emax                 < 30%

Reference source: patent US20230373939A1
